- Tested on: NCI-H322M
- assay: relative viability (nuclei count vs DMSO), 5 days (fraction); higher = more cells survive
- condition details: first compound 1 µM
Listed here: items and their measured relative viability.
Please give only the number in your answer, with no unit.

molecule	study system	relative viability
O=c1cc(N2CCOCC2)oc2c(-c3cccc4c3sc3ccccc34)cccc12 + CC(C)C[C@H](NC(=O)[C@H](Cc1ccccc1)NC(=O)c1cnccn1)B(O)O [Bortezomib] (partner 0.002 µM)	NCI-H322M	1.03

As a next step, examine the molecule that follows.
Task: Entry under review: O=c1cc(N2CCOCC2)oc2c(-c3cccc4c3sc3ccccc34)cccc12 + CC(=O)Nc1cccc(-n2c(=O)n(C3CC3)c(=O)c3c(Nc4ccc(I)cc4F)n(C)c(=O)c(C)c32)c1 [Trametinib] (partner 0.02 µM) . Reported relative viability?
Output: 0.494
